TARGET OR TEST SYSTEM: hPAOX (Homo sapiens (Human))
TEST: Human PAOX assay (HyPerBlu chemiluminescent detection of hydrogen peroxide)
CONDITION INFO: 60 pM recombinant PAOX, 20 μM N-acetylspermine substrate
MEASURED ATTRIBUTE: log10 of IC50 (log10 of the value in µM)
Use the decimal logarithm of IC50 (µM).

Some solved cases for reference:
> print(dat)
                                   compound  value.measured
1  CN1CCC(CNC(=O)c2cc3nc(-c4ccccc4)cc(-c4ccccc4)n3n2)C1 (centres unmarked)           -0.51
2  CC1C(NC(=O)c2cc3nc(-c4ccccc4)cc(-c4ccccc4)n3n2)CN1C (centres unmarked)            0.81

Item: CN1CC[C@H](NC(=O)c2cc3nc(-c4ccccc4)cc(N4CCCCC4)n3n2)C1 (single isomer, unassigned) Test system: hPAOX (Homo sapiens (Human)) Read-out: log10 of IC50 Value: ? 0.62

Item: O=C(NCCCNc1ccccn1)c1cc2nc(-c3ccccc3)cc(-c3ccccc3)n2n1 Test system: hPAOX (Homo sapiens (Human)) Read-out: log10 of IC50 Value: ? -1.66

Item: O=C(NCCCn1ccnc1)c1cc2nc(-c3ccccc3)cc(NC3CCCC3)n2n1 Test system: hPAOX (Homo sapiens (Human)) Read-out: log10 of IC50 Value: ? 0.39

Item: O=C(NC1CCN(Cc2ccccc2)C1)c1cc2nc(-c3ccccc3)cc(-c3ccccc3)n2n1 (centres unmarked) Test system: hPAOX (Homo sapiens (Human)) Read-out: log10 of IC50 Value: ? 0.64

Item: CN(CCCNC(=O)c1cc2nc(-c3ccccc3)cc(-c3ccccc3)n2n1)c1ccccn1 Test system: hPAOX (Homo sapiens (Human)) Read-out: log10 of IC50 Value: ? 0.79

Item: O=C(NCCc1ccccn1)c1cc2nc(-c3ccccc3)cc(-c3ccccc3)n2n1 Test system: hPAOX (Homo sapiens (Human)) Read-out: log10 of IC50 Value: ? 0.15

Item: CCN1CCC[C@@H]1CNC(=O)c1cc2nc(-c3ccccc3)cc(-c3ccccc3)n2n1 Test system: hPAOX (Homo sapiens (Human)) Read-out: log10 of IC50 Value: ? 0.80

Item: CN(C)CCNC(=O)c1cc2nc(-c3ccccc3)cc(-c3ccccc3)n2n1 Test system: hPAOX (Homo sapiens (Human)) Read-out: log10 of IC50 Value: ? 0.14

====

TARGET OR TEST SYSTEM: hPAOX (Homo sapiens (Human), UniProt Q6QHF9)
Sequence (Q6QHF9 whole entry): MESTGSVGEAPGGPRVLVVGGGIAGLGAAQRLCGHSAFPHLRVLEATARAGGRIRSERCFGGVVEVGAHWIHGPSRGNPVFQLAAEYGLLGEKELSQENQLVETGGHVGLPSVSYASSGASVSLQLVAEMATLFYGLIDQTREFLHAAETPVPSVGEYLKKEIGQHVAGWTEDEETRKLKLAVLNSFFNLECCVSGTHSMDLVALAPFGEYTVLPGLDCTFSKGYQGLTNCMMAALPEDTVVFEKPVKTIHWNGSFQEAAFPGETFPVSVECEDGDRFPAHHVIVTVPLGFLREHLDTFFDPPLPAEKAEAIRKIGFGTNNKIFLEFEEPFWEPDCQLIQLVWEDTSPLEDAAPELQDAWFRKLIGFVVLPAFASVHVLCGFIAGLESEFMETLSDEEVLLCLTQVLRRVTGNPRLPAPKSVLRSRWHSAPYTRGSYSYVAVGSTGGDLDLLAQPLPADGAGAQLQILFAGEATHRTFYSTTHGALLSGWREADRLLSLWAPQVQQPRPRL
TEST: Human PAOX assay (HyPerBlu chemiluminescent detection of hydrogen peroxide)
CONDITION INFO: 60 pM recombinant PAOX, 20 μM N-acetylspermine substrate
Here the recorded IC50 is given for each entry.
Report the figure in µM without appending any unit label.

Suppose we examine the compound O=C(NCCCn1ccnc1)c1cc2nc(-c3ccccc3)cc(N3CCC3)n2n1 [Example 56] ; what IC50 value has been reported? 3.73

Suppose we examine the compound CN1CCC(NC(=O)c2cc3nc(-c4ccccc4)cc(-c4ccccc4)n3n2)C1 (stereo not shown) [Example 6] ; what IC50 value has been reported? 4.95

Suppose we examine the compound Cn1ccc(-c2cc(-c3ccccc3)nc3cc(C(=O)NCCCn4ccnc4)nn23)n1 [Example 85] ; what IC50 value has been reported? 2.37

Suppose we examine the compound CN1CCC(C)(CNC(=O)c2nn3c(-c4ccccc4)cc(-c4ccccc4)nc3c2I)C1 (stereo not shown) [Example 48] ; what IC50 value has been reported? 7.59

====

TARGET OR TEST SYSTEM: UniProtKB Q6QHF9
TEST: Human PAOX assay (HyPerBlu chemiluminescent detection of hydrogen peroxide)
CONDITION INFO: 60 pM recombinant PAOX, 20 μM N-acetylspermine substrate
Counter-ions that a name gives are not always drawn.
Decide using IC50 alone. Strictly below 2000 nM: 1. Equal to or above 2000 nM: -1.

Consider the worked cases shown below.
> print(dat)
                                   molecule  qualitative.label
1  O=C(NCCCn1ccnc1)c1cc2nc(-c3ccccc3)cc(C3CCC3)n2n1 [Example 109]                  1
2  O=C(NCCCn1ccnc1)c1cc2nc(-c3ccccc3)cc(-c3cccc(F)c3)n2n1 [Example 78]                  1
3  NCCNC(=O)c1cc2nc(-c3ccccc3)cc(-c3ccccc3)n2n1 [Example 119, hydrochloride]                 -1

In plain terms, does O=C(NCCCn1ccnc1)c1cc2nc(-c3ccccc3)cc(N3CC4CC4C3)n2n1 (centres unmarked) [Example 61] come in under 2000 nM for IC50? -1

In plain terms, does CN1CC(NC(=O)c2cc3nc(-c4ccccc4)cc(N4CCCCC4)n3n2)C1 [Example 68, trifluoroacetate] come in under 2000 nM for IC50? -1

====

// endpoint IC50 / system SMOX (Homo sapiens (Human))
Structures can show the parent of a compound that is named as a salt.
Report the figure in nM without appending any unit label.

> print(dat)
                                   compound  value.measured
1  O=C(NCCc1ncc[nH]1)c1cc2nc(-c3ccccc3)cc(-c3ccccc3)n2n1 [Example 25]             253

Suppose we examine the compound CCN1CCC(NC(=O)c2cc3nc(-c4ccccc4)cc(-c4ccccc4)n3n2)C1 (stereo not shown) [Example 5] ; what IC50 value has been reported? 367

Suppose we examine the compound O=C(NCCn1ccnc1)c1cc2nc(-c3ccccc3)cc(-c3ccccc3)n2n1 [Example 12] ; what IC50 value has been reported? 231

Suppose we examine the compound CN(C)CCCNC(=O)c1cc2nc(-c3ccccc3)cc(N3CCCCC3)n2n1 [Example 70] ; what IC50 value has been reported? 930

Suppose we examine the compound O=C(NCCCc1c[nH]cn1)c1cc2nc(-c3ccccc3)cc(-c3ccccc3)n2n1 [Example 27] ; what IC50 value has been reported? 15

Suppose we examine the compound CN1CC(NC(=O)c2cc3nc(-c4ccccc4)cc(N4CCC[C@@H](O)C4)n3n2)C1 [Example 67] ; what IC50 value has been reported? 177

Suppose we examine the compound CN1CC(N(C)C(=O)c2cc3nc(-c4ccccc4)cc(-c4ccccc4)n3n2)C1 [Example 45] ; what IC50 value has been reported? 1820

Suppose we examine the compound CN1CC(NC(=O)c2nn3c(-c4ccccc4)cc(-c4ccccc4)nc3c2F)C1 [Example 52] ; what IC50 value has been reported? 215

Suppose we examine the compound CN1CC(NC(=O)c2cc3nc(-c4ccccc4)cc(N4CCCCC4)n3n2)C1 [Example 68, trifluoroacetate] ; what IC50 value has been reported? 147

Suppose we examine the compound O=C(NCCCn1ccnc1)c1cc2nc(-c3ccccc3)cc(-c3ccncc3)n2n1 [Example 97] ; what IC50 value has been reported? 4570

Suppose we examine the compound O=C(NCCCc1ccncc1)c1cc2nc(-c3ccccc3)cc(-c3ccccc3)n2n1 [Example 9] ; what IC50 value has been reported? 195

Suppose we examine the compound N#Cc1cccc(-c2cc(-c3ccccc3)nc3cc(C(=O)NCCCn4ccnc4)nn23)c1 [Example 89] ; what IC50 value has been reported? 159

Suppose we examine the compound Cc1c(C(=O)NCC2(C)CCN(C)C2)nn2c(-c3ccccc3)cc(-c3ccccc3)nc12 (stereo not shown) [Example 54] ; what IC50 value has been reported? 1490

====

Here the recorded log10 IC50 is given for each entry.
TARGET OR TEST SYSTEM: hPAOX (Homo sapiens (Human))
TEST: Human PAOX assay (HyPerBlu chemiluminescent detection of hydrogen peroxide)
CONDITION INFO: 60 pM recombinant PAOX, 20 μM N-acetylspermine substrate
Use the decimal logarithm of IC50 (nM).

> print(dat)
                                   compound  measured.attribute  value.measured
1  O=C(NCCCn1ccnc1)c1cc2nc(-c3ccccc3)cc(N3CCCCC3)n2n1          log10 IC50            3.84
2  O=C(NCCN1CCC1)c1cc2nc(-c3ccccc3)cc(-c3ccccc3)n2n1          log10 IC50            3.00
3  Cc1ccc(-c2cc(-c3ccccc3)nc3cc(C(=O)NCCCn4ccnc4)nn23)cc1          log10 IC50            2.91

Suppose we examine the compound O=C(NCC1CCc2nccn2C1)c1cc2nc(-c3ccccc3)cc(-c3ccccc3)n2n1 (centres unmarked) ; what log10 IC50 value has been reported? 2.49

Suppose we examine the compound O=C(NC1CN(Cc2ccccc2)C1)c1cc2nc(-c3ccccc3)cc(-c3ccccc3)n2n1 ; what log10 IC50 value has been reported? 3.66

Suppose we examine the compound CN1CC(CNC(=O)c2cc3nc(-c4ccccc4)cc(-c4ccccc4)n3n2)C1 ; what log10 IC50 value has been reported? 3.25
